These measurements were taken from patent US5612319A.

Test: Cell culture tolerance in MT4 cells
Assay type: cell-based, human
Details: human; cell culture, MT4 cells; read-out: ID50 in MT4 cells
property label: CC50

Please indicate CC50 recorded for `Nc1ccn([C@H]2C[C@H](CO)[C@@H](CO)O2)c(=O)n1`
~45 µg/mL
